Collected protein stability index values appear next to each entry.
Test system: Saccharomyces cerevisiae
Assay: protein stability index of tFT-peptide fusion (C-terminal peptide) (PSI (0-1 scale)); higher = more stable (slower turnover)
Conditions: genetic background: cdc34-1; temperature: 37 C
Please give only the number in your answer, with no unit.

Check out these entries, answers already filled in.
LLFCFSVILFTC 0.0922
ELNERRKRLVTN 0.623

Shift focus to the following entry.
Looking for the measured protein stability index of TGRLFVSLRVWY , can you help?
0.321

----------
Collected protein stability index values appear next to each entry.
System: Saccharomyces cerevisiae
Assay: protein stability index of tFT-peptide fusion (C-terminal peptide) (PSI (0-1 scale)); higher = more stable (slower turnover)
Conditions: genetic background: das1 deletion; temperature: 30 C

chain-sequence	target-desc	protein stability index
VRADDLSTRFNI [RRP43 C-terminal 12 aa]	Saccharomyces cerevisiae	0.657

Looking for the measured protein stability index of HDHHNDVPEAPV [RAD1 C-terminal 12 aa] , can you help?
0.694

Looking for the measured protein stability index of FFFPLFLFLYHL [YHR180W-A C-terminal 12 aa] , can you help?
0.436

Looking for the measured protein stability index of NDDDEDDDDFFD [SDD2 C-terminal 12 aa] , can you help?
0.723

Looking for the measured protein stability index of EAELEEDWGMYG [YBR062C C-terminal 12 aa] , can you help?
0.711

Looking for the measured protein stability index of EANNLLNIIKGN [MRP51 C-terminal 12 aa] , can you help?
0.68

----------
Collected protein stability index values appear next to each entry.
Tested on: Saccharomyces cerevisiae
Assay: protein stability index of tFT-peptide fusion (C-terminal peptide) (PSI (0-1 scale)); higher = more stable (slower turnover)
Settings: genetic background: wild type; temperature: 30 C
Please give only the number in your answer, with no unit.

RRERRKKTETDK 0.735
PPAPTHSAPSQI 0.655
SYESKPPLSWDS 0.73
SSFNSCQFVLSY 0.563
PRSPPPPLLSPP 0.692

Looking for the measured protein stability index of SLRLFVPVYPPP , can you help?
0.576

Looking for the measured protein stability index of FSETDSWCQARS , can you help?
0.717

Looking for the measured protein stability index of WAKRERRNEGRR , can you help?
0.71

----------
Collected protein stability index values appear next to each entry.
Test system: Saccharomyces cerevisiae
Test: protein stability index of tFT-peptide fusion in deletion strain of DAS1 (PSI (0-1 scale)); higher = more stable (slower turnover)
Please give only the number in your answer, with no unit.

Looking for the measured protein stability index of PSLAAQFWRVVG , can you help?
0.696

Looking for the measured protein stability index of PSLAASFWRVHG , can you help?
0.686

Looking for the measured protein stability index of PDKRNHNIKLLN , can you help?
0.602

Looking for the measured protein stability index of VRGPVGGWRLVG , can you help?
0.682

Looking for the measured protein stability index of ARWRDGLWRGAS , can you help?
0.692

----------
Test system: Saccharomyces cerevisiae
Experiment: protein stability index of tFT-peptide fusion (C-terminal peptide) (PSI (0-1 scale)); higher = more stable (slower turnover)
Details: genetic background: cdc34-1; temperature: 37 C
endpoint: protein stability index
Please give only the number in your answer, with no unit.

Check out these entries, answers already filled in.
PLLSATLTRRLA 0.622
SPCLPRGVLFLA 0.603
SVPIAFYLLFFQ 0.557
FCCLIGYIWYGW 0.451
ARKIGKVIPKLG 0.686

Looking for the measured protein stability index of GINHLSLKLRLF , can you help?
0.647

Looking for the measured protein stability index of SLCSSVQVWSVV , can you help?
0.7

Looking for the measured protein stability index of SVVRCWVLLGVA , can you help?
0.121

Looking for the measured protein stability index of APTMAIIVVHVR , can you help?
0.237

Looking for the measured protein stability index of FLDYLLFIFFFF , can you help?
0.431

Looking for the measured protein stability index of QCRLPRPPLSLP , can you help?
0.676

Looking for the measured protein stability index of VIVQSWEIIRLN , can you help?
0.553

Looking for the measured protein stability index of HPRPRPPPLPPP , can you help?
0.463

Looking for the measured protein stability index of GVQFSVKWVKLG , can you help?
0.519

Looking for the measured protein stability index of VFLLLSLSVFFE , can you help?
0.0371

Ref: the supplement of paper PMC10724198
